Where do these numbers come from? They come from the supplement of paper PMC10724198.

- Tested on: Saccharomyces cerevisiae;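 note: PSI is a weighted mean of sequencing reads over stability bins, variants kept only with over 10 reads, mCherry proximal and sfGFP distal, peptide attached via GGGS linker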
- experiment description: protein stability index of tFT-peptide fusion (C-terminal peptide) (PSI (0-1 scale)); higher = more stable (slower turnover)
- test settings: genetic background: wild type; temperature: 30 C
protein stability index overview
Respond numerically, and do not add a unit to the figure.

// below: answered sequences
{"seq string": "CEFGGEEINQTV", "measured attribute": "protein stability index", "endpoint value": 0.695}
{"seq string": "PLAPPRHRRRPG", "measured attribute": "protein stability index", "endpoint value": 0.713}
{"seq string": "PHLHLPPPPISA", "measured attribute": "protein stability index", "endpoint value": 0.586}
{"seq string": "PWPPRPPPPPSL", "measured attribute": "protein stability index", "endpoint value": 0.694}

Query block: Notebook entry, Saccharomyces cerevisiae assay: protein stability index of VCSVLFPFLPLP = ?
Result block: 0.704

Query block: Notebook entry, Saccharomyces cerevisiae assay: protein stability index of REQKTKDKKKRQ = ?
Result block: 0.703

Query block: Notebook entry, Saccharomyces cerevisiae assay: protein stability index of GQLGGRGNRRVA = ?
Result block: 0.718

Query block: Notebook entry, Saccharomyces cerevisiae assay: protein stability index of DVRVFQMLQGDI = ?
Result block: 0.709

Query block: Notebook entry, Saccharomyces cerevisiae assay: protein stability index of NLRVANLAQRTE = ?
Result block: 0.703
